Data provenance is patent US8901072B2.

This listing pairs molecules with measured MIC against S. aureus ATCC 13709, CAMHB.
- System: S. aureus ATCC 13709
- procedure.summary: In vitro antibacterial susceptibility (MIC, broth microdilution)
- Format: cell-based
- experimental.setup: cation-adjusted Mueller-Hinton broth, 37° C., 18 h
- Protocol: Susceptibility of S. aureus strain ATCC13709 to oritavancin (5) and synthesized compounds was determined following the guidelines set by the Clinical and Laboratory Standards Institute (formerly the National Committee for Clinical Laboratory Standards) (M26-A). Compounds were serially diluted two-fold in either DMSO (Oritavancin 5) or in PBS and transferred to cation-adjusted Mueller Hinton broth (CAMHB; Becton Dickinson). […]
Write down the value, and be sure its unit follows.

See these solved cases before continuing.
* CNC(CC(C)C)C(=O)NC1C(=O)NC(CC(N)=O)C(=O)NC2C(=O)NC3C(=O)NC(C(=O)NC(C(=O)OCC(=O)NCCCCN)c4cc(O)cc(O)c4-c4cc3ccc4O)C(OC3CC(C)(N)C(O)C(C)O3)c3ccc(c(Cl)c3)Oc3cc2cc(c3OC2OC(CO)C(O)C(O)C2OC2CC(C)(NCc3ccc(-c4ccc(Cl)cc4)cc3)C(O)C(C)O2)Oc2ccc(cc2Cl)C1O (centres unmarked) [Compound 90c] | 1 µg/mL
* CC(C)CC(C(=O)NC1C(=O)NC(CC(N)=O)C(=O)NC2C(=O)NC3C(=O)NC(C(=O)NC(C(=O)O)c4cc(O)cc(O)c4-c4cc3ccc4O)C(OC3CC(C)(N)C(O)C(C)O3)c3ccc(c(Cl)c3)Oc3cc2cc(c3OC2OC(CO)C(O)C(O)C2OC2CC(C)(NCc3ccc(-c4ccc(Cl)cc4)cc3)C(O)C(C)O2)Oc2ccc(cc2Cl)C1O)N(C)C(=O)OCOC(=O)C(CCCCN)NC(=O)C(N)CCCCN (centres unmarked) | 2 µg/mL

Read the next record carefully.
Enter reported MIC against S. aureus ATCC 13709, CAMHB observed with S. aureus ATCC 13709 for CC(C)CC(C(=O)NC1C(=O)NC(CC(N)=O)C(=O)NC2C(=O)NC3C(=O)NC(C(=O)NC(C(=O)O)c4cc(O)cc(O)c4-c4cc3ccc4O)C(OC3CC(C)(N)C(O)C(C)O3)c3ccc(c(Cl)c3)Oc3cc2cc(c3OC2OC(CO)C(O)C(O)C2OC2CC(C)(NCc3ccc(-c4ccc(Cl)cc4)cc3)C(O)C(C)O2)Oc2ccc(cc2Cl)C1O)N(C)C(=O)CCC(=O)N(CC(=O)O)CC(=O)O (centres unmarked)
4 µg/mL

---

- procedure.summary: Solubility in phosphate buffered saline
- Format: physicochemical
- experimental.setup: 10 mM phosphate buffered saline (0.138 M NaCl, 2.7 mM KCl), pH 7.4
Solubility (mg/mL) PBS values, listed per item

- CC(C)CC(C(=O)NC1C(=O)NC(CC(N)=O)C(=O)NC2C(=O)NC3C(=O)NC(C(=O)NC(C(=O)O)c4cc(O)cc(O)c4-c4cc3ccc4O)C(OC3CC(C)(N)C(O)C(C)O3)c3ccc(c(Cl)c3)Oc3cc2cc(c3OC2OC(CO)C(O)C(O)C2OC2CC(C)(NCc3ccc(-c4ccc(Cl)cc4)cc3)C(O)C(C)O2)Oc2ccc(cc2Cl)C1O)N(C)C(=O)OCc1ccc(OP(=O)(O)O)cc1 (centres unmarked): 8 mg/mL
- CC(C)CC(C(=O)NC1C(=O)NC(CC(N)=O)C(=O)NC2C(=O)NC3C(=O)NC(C(=O)NC(C(=O)O)c4cc(O)cc(O)c4-c4cc3ccc4O)C(OC3CC(C)(N)C(O)C(C)O3)c3ccc(c(Cl)c3)Oc3cc2cc(c3OC2OC(CO)C(O)C(O)C2OC2CC(C)(NCc3ccc(-c4ccc(Cl)cc4)cc3)C(O)C(C)O2)Oc2ccc(cc2Cl)C1O)N(C)C(=O)OCOC(=O)CCC(=O)NC(CCC(=O)O)(CCC(=O)O)CCC(=O)O (centres unmarked): 4 mg/mL
- CC(C)CC(C(=O)NC1C(=O)NC(CC(N)=O)C(=O)NC2C(=O)NC3C(=O)NC(C(=O)NC(C(=O)O)c4cc(O)cc(O)c4-c4cc3ccc4O)C(OC3CC(C)(N)C(O)C(C)O3)c3ccc(c(Cl)c3)Oc3cc2cc(c3OC2OC(CO)C(O)C(O)C2OC2CC(C)(NCc3ccc(-c4ccc(Cl)cc4)cc3)C(O)C(C)O2)Oc2ccc(cc2Cl)C1O)N(C)C(=O)OCOC(=O)CCC(=O)O (centres unmarked): <0.5 mg/mL

Now look at this entry.
Field request: Solubility (mg/mL) PBS | item: CC(C)CC(C(=O)NC1C(=O)NC(CC(N)=O)C(=O)NC2C(=O)NC3C(=O)NC(C(=O)NC(C(=O)O)c4cc(O)cc(O)c4-c4cc3ccc4O)C(OC3CC(C)(N)C(O)C(C)O3)c3ccc(c(Cl)c3)Oc3cc2cc(c3OC2OC(CO)C(O)C(O)C2OC2CC(C)(NCc3ccc(-c4ccc(Cl)cc4)cc3)C(O)C(C)O2)Oc2ccc(cc2Cl)C1O)N(C)C(=O)OCOC(=O)CCC(=O)N(CC(=O)O)CC(=O)O (centres unmarked)
5.5 mg/mL

---

Listing of entries alongside the reported MIC against S. aureus ATCC 13709, CAMHB + 50% human serum.
- System: S. aureus ATCC 13709
- procedure.summary: In vitro antibacterial susceptibility (MIC, broth microdilution)
- Format: cell-based
- experimental.setup: CAMHB + 50% human serum

• CC(C)CC(C(=O)NC1C(=O)NC(CC(N)=O)C(=O)NC2C(=O)NC3C(=O)NC(C(=O)NC(C(=O)O)c4cc(O)cc(O)c4-c4cc3ccc4O)C(OC3CC(C)(N)C(O)C(C)O3)c3ccc(c(Cl)c3)Oc3cc2cc(c3OC2OC(CO)C(O)C(O)C2OC2CC(C)(NCc3ccc(-c4ccc(Cl)cc4)cc3)C(O)C(C)O2)Oc2ccc(cc2Cl)C1O)N(C)C(=O)OCOC(=O)C(CCCCN)NC(=O)C(N)CCCCN (stereo not drawn) [Compound 56] = 4 µg/mL

What is its MIC against S. aureus ATCC 13709, CAMHB + 50% human serum for S. aureus ATCC 13709? Entry: CNC(CC(C)C)C(=O)NC1C(=O)NC(CC(N)=O)C(=O)NC2C(=O)NC3C(=O)NC(C(=O)NC(C(=O)OCC[N+](C)(C)C)c4cc(O)cc(O)c4-c4cc3ccc4O)C(OC3CC(C)(N)C(O)C(C)O3)c3ccc(c(Cl)c3)Oc3cc2cc(c3OC2OC(CO)C(O)C(O)C2OC2CC(C)(NCc3ccc(-c4ccc(Cl)cc4)cc3)C(O)C(C)O2)Oc2ccc(cc2Cl)C1O (stereo not drawn) [Compound 95]
0.5 µg/mL

And what about the molecule CNC(CC(C)C)C(=O)NC1C(=O)NC(CC(N)=O)C(=O)NC2C(=O)NC3C(=O)NC(C(=O)NC(C(=O)SCC(=O)NCCCN)c4cc(O)cc(O)c4-c4cc3ccc4O)C(OC3CC(C)(N)C(O)C(C)O3)c3ccc(c(Cl)c3)Oc3cc2cc(c3OC2OC(CO)C(O)C(O)C2OC2CC(C)(NCc3ccc(-c4ccc(Cl)cc4)cc3)C(O)C(C)O2)Oc2ccc(cc2Cl)C1O (stereo not drawn) [Compound 93] ?
0.25 µg/mL

---

Measured MIC against S. aureus ATCC 13709, CAMHB, listed per entry.
- Tested on: S. aureus ATCC 13709
- procedure.summary: In vitro antibacterial susceptibility (MIC, broth microdilution)
- Format: cell-based
- experimental.setup: cation-adjusted Mueller-Hinton broth, 37° C., 18 h
Please reply with the bare figure in µg/mL and do not write the unit itself.

Solved cases below.
* CC(C)CC(C(=O)NC1C(=O)NC(CC(N)=O)C(=O)NC2C(=O)NC3C(=O)NC(C(=O)NC(C(=O)O)c4cc(O)cc(O)c4-c4cc3ccc4O)C(OC3CC(C)(N)C(O)C(C)O3)c3ccc(c(Cl)c3)Oc3cc2cc(c3OC2OC(CO)C(O)C(O)C2OC2CC(C)(NCc3ccc(-c4ccc(Cl)cc4)cc3)C(O)C(C)O2)Oc2ccc(cc2Cl)C1O)N(C)C(=O)CNC(=O)C(N)CCCCN (stereo not drawn) | 2
* CC(C)CC(C(=O)NC1C(=O)NC(CC(N)=O)C(=O)NC2C(=O)NC3C(=O)NC(C(=O)NC(C(=O)O)c4cc(O)cc(O)c4-c4cc3ccc4O)C(OC3CC(C)(N)C(O)C(C)O3)c3ccc(c(Cl)c3)Oc3cc2cc(c3OC2OC(CO)C(O)C(O)C2OC2CC(C)(NCc3ccc(-c4ccc(Cl)cc4)cc3)C(O)C(C)O2)Oc2ccc(cc2Cl)C1O)N(C)C(=O)OCOC(=O)CCC(=O)O (stereo not drawn) | 2

Sample CC(C)CC(C(=O)NC1C(=O)NC(CC(N)=O)C(=O)NC2C(=O)NC3C(=O)NC(C(=O)NC(C(=O)O)c4cc(O)cc(O)c4-c4cc3ccc4O)C(OC3CC(C)(N)C(O)C(C)O3)c3ccc(c(Cl)c3)Oc3cc2cc(c3OC2OC(CO)C(O)C(O)C2OC2CC(C)(NCc3ccc(-c4ccc(Cl)cc4)cc3)C(O)C(C)O2)Oc2ccc(cc2Cl)C1O)N(C)C(=O)OCc1ccc(OP(=O)(O)O)cc1 (stereo not drawn) — what was its MIC against S. aureus ATCC 13709, CAMHB?
2
